These measurements were taken from the supplement of paper PMC6555819.

test system: PXR homodimer (NR concentration 270 nM); assay: PBM binding z-score (relative to random genomic background probes); higher = stronger binding; sequences stand for … in GC…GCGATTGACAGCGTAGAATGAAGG
Entry flag: y if PBM binding z-score reaches 0.3; n if it does not.

sequenceString: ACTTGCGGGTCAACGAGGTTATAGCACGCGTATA
assayedSystem: PXR homodimer (NR concentration 270 nM)
group: y
//
sequenceString: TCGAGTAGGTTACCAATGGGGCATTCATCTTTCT
assayedSystem: PXR homodimer (NR concentration 270 nM)
group: n
//
sequenceString: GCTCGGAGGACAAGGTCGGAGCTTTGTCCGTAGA
assayedSystem: PXR homodimer (NR concentration 270 nM)
group: n
//
sequenceString: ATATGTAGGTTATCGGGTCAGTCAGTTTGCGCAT
assayedSystem: PXR homodimer (NR concentration 270 nM)
group: y
//
sequenceString: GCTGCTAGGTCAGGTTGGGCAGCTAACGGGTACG
assayedSystem: PXR homodimer (NR concentration 270 nM)
group: n
//
sequenceString: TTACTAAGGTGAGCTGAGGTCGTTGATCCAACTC
assayedSystem: PXR homodimer (NR concentration 270 nM)
group: y
//
sequenceString: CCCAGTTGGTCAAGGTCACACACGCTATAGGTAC
assayedSystem: PXR homodimer (NR concentration 270 nM)
group: y
//
sequenceString: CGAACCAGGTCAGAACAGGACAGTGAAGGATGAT
assayedSystem: PXR homodimer (NR concentration 270 nM)
group: n
//
sequenceString: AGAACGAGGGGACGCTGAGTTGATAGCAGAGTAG
assayedSystem: PXR homodimer (NR concentration 270 nM)
group: n
//
sequenceString: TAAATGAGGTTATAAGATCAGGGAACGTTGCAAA
assayedSystem: PXR homodimer (NR concentration 270 nM)
group: n
//
sequenceString: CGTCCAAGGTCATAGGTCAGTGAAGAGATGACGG
assayedSystem: PXR homodimer (NR concentration 270 nM)
group: y
//
sequenceString: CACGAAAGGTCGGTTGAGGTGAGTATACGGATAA
assayedSystem: PXR homodimer (NR concentration 270 nM)
group: n
